- ASSAYED TARGET: GMP-140 (Homo sapiens, UniProt P16109)
- Construct: from tissue; host or cells: human platelets (outdated platelet packs from a blood bank)
- Sequence (P16109 42-830): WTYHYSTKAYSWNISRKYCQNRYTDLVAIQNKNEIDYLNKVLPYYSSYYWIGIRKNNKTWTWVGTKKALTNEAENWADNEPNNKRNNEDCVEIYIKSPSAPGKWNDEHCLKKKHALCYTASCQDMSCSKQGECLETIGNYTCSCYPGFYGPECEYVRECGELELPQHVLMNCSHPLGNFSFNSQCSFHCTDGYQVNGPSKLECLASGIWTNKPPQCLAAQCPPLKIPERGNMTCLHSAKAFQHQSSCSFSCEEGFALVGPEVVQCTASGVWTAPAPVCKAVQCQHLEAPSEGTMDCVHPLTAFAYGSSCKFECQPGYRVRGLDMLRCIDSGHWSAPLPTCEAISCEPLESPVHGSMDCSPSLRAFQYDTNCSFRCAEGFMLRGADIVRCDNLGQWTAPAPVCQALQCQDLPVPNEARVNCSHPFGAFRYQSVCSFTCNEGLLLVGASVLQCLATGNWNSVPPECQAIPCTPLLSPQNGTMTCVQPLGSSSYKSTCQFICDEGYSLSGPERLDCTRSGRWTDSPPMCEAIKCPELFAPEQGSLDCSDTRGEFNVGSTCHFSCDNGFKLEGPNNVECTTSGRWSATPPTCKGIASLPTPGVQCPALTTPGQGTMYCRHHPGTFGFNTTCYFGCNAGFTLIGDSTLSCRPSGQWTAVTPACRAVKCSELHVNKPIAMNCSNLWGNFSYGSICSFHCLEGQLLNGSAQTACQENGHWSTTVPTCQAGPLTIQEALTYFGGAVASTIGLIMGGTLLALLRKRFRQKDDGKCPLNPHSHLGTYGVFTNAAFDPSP
- METHOD DESCRIPTION: Inhibition of neutrophil binding to GMP-140 coated wells
- Format: cell-based
- MEASUREMENT PARAMETERS: peptide concentration 0.5 mM; human neutrophils, immobilized GMP-140
- From the text: Peptides can be screened for their ability to inhibit adhesion to cells, for example, neutrophil adhesion to purified GMP-140 immobilized on plastic wells, using the assay described by Geng, et al., Nature 343, 757-760 (1990). Human neutrophils are isolated from heparinized whole blood by density gradient centrifugation on Mono-Poly resolving media, Flow laboratories. Neutrophil suspensions are greater than 98% pure and greater than 95% viable by trypan blue exclusion. […]
No end group written: not given here. *: point of attachment. Fmoc = O=C(OCC1c2ccccc2-c2ccccc21)*
Overview of recorded Percent inhibition of neutrophil binding to GMP-140 for various substances
READOUT KIND: Percent inhibition of neutrophil binding to GMP-140

SUBSTANCE: FMOC-Asn-Asn-Lys-Thr-Trp-NH2 (Fmoc-NNKTW-NH2; SMILES C[C@@H](O)[C@H](NC(=O)[C@H](CCCCN)NC(=O)[C@H](CC(N)=O)NC(=O)[C@H](CC(N)=O)NC(=O)OCC1c2ccccc2-c2ccccc21)C(=O)N[C@@H](Cc1c[nH]c2ccccc12)C(N)=O)
RESULT: 100%

SUBSTANCE: KWKWNRTNVT-NH2 [reference compound]
RESULT: 0%

SUBSTANCE: Arg-Lys-Asn-Asn-Lys-Thr-Trp-NH2 (RKNNKTW-NH2)
RESULT: 53%

SUBSTANCE: Arg-Glu-Asn-Asn-Lys-Thr-Trp-Thr-Trp-Val-NH2 (RENNKTWTWV-NH2)
RESULT: 94%
